# protocol-description: Pharmacokinetic study in mice
# Assay type: in vivo
# reported-conditions: oral, 10 mg/kg
endpoint: BA (%)

O=C1N[C@]2(C[C@@H](F)c3cc(-c4cnn(C5CN(C6COC6)C5)c4)ccc32)C(=O)N1CC(=O)N(Cc1ccc(F)cn1)C1(C(F)(F)F)CC(F)(F)C1	109.1

A: O=C1N[C@]2(CCc3cc(-c4cnn(C5CN(C6COC6)C5)c4)ccc32)C(=O)N1CC(=O)N(Cc1ccc(F)cc1)C1(C(F)(F)F)CC(F)(F)C1
B: O=C1N[C@]2(C[C@@H](F)c3cc(-c4cnn(C5CN(C6COC6)C5)c4)ccc32)C(=O)N1CC(=O)N(Cc1ccc(F)cc1)C1(C(F)(F)F)COC1
*Q* Record comparison, field BA: mark the lower of A and B . Field: selected label. Fill in the label of the entry you choose.
*A* B

Source: patent US20250257055A1
